Source listed as patent US12208110B2.

Catalogue of molecules with associated CC50
Tested on: MT-4 cells
Assay: MT4 cytotoxicity analysis (CellTiter-Glo)
Type: cell-based
Conditions: MT-4 cells, five days, CellTiter-Glo; read-out: MT4 CC50

smiles entry: CCCCCCCCCCCOCCOP(=O)(O)OC[C@H]1O[C@@](C#N)(c2ccc3c(N)ncnn23)[C@H](O)[C@@H]1O
CC50: 50 µM

smiles entry: CCCCCCCCOCCOP(=O)(O)OC[C@H]1O[C@@](C#N)(c2ccc3c(N)ncnn23)[C@H](O)[C@@H]1O
CC50: 50 µM

smiles entry: CCCCCCCCCOCCCOP(=O)(O)OC[C@H]1O[C@@](C#N)(c2ccc3c(N)ncnn23)[C@H](O)[C@@H]1O
CC50: 50 µM
